molecular target: A156T mutant of the HCV NS3/4A 1b protease enzyme (Hepatitis C virus genotype 1b, UniProt P26663, A1182T); construct: 10× stocks of NS3/4A protease enzyme from Bioenza (Mountain View, Calif.); purchased Bioenza (Mountain View, Calif.); assay: HCV Protease FRET Assay (IC50), A156T mutant; assay type: biochemical; settings: read-out: Inhibition, HCV A156T; A156T enzyme, FRET assay
pIC50: −log10 of the molar value.
TEST READOUT: pIC50

Problem: Dear colleague, I am looking for the recorded pIC50 of the following compound: `C=C[C@@H]1C[C@]1(NC(=O)[C@@H]1C[C@@H](Oc2cc(-c3ccccc3)nc3cc(OC)ccc23)CN1C(=O)[C@H](CNC(=O)/C=C/C)NC(=O)OC(C)(C)C)C(=O)NS(=O)(=O)c1ccccc1`
Solution: 7.00 to 8.00

Problem: Let us now turn to `C=C[C@@H]1C[C@]1(NC(=O)[C@@H]1C[C@@H](Oc2cc(-c3ccccc3)nc3cc(OC)ccc23)CN1C(=O)[C@H](CN(C)C(=O)CCl)NC(=O)OC(C)(C)C)C(=O)NS(=O)(=O)c1ccccc1`
Solution: > 8.00
